Experiment Summary: yeast display, Sf9 membrane polyspecificity reagent, FACS + sequencing; frameworks hold sequencing errors
Property Name: polyreactivity (PSR sort gate)

[[record]]
seq_string = "QVQLVESGGGLVQAGGSLRLSCAASGSTFKPNAMGWYRQAPGKERELVAGISGRGGSTNYADSVKGRFTISRDNAKNTVYLQMNRLKPEDTAVYYCAKDAYPLWLTRYNYWGQGTQVTVSS"
experimental_value = "low polyreactivity"

[[record]]
seq_string = "QVQLVESGGGLVQAGGSLRLSCAASGSIFSTNAMGWYRQAPGKEWELVAVITGIGGITYYADSVKGRFTISRDNAKNTDYLQMNSLKPEDTAVYYCAADPISEFYWGVKDRYDYWGQGTQVTVSS"
experimental_value = "low polyreactivity"

[[record]]
seq_string = "QVQLVESGGGLFQAGGSLRLSCAASGRIFIVITMGWYRQAPGKERELVATIDSDGDTNYADSVKGRFTISRDNAKNTVYLQMNSLKPEDTAVYYCAAYYTHTLAALKGGRMDYWGQGTQVTVSS"
experimental_value = "low polyreactivity"


###

Experiment Summary: yeast display, Sf9 membrane polyspecificity reagent, FACS + sequencing; frameworks hold sequencing errors
Property Name: polyreactivity (PSR sort gate)

Answered cases to consult:
[[record]]
seq_string = "QVQLVESGGGLVQAGGSLRLSCAASGNTFGRYAMGWSRQAPGKERELVASIRGSSVRTFYADSVKGRFTISRDNAKNTVYLQMNSLKPEDTAVYYCAKRGYAYPSSYDSWGQGTQVTVSS"
experimental_value = "high polyreactivity"

[[record]]
seq_string = "QVQLVESGGGLVQSGVSLRLSCAASGIIFFSNTMGWYRQAPGKEREFVAAITWSTGNTYYADSVKGRFTISRDNAKNTVYLQMNSLKPEDTAVYYCYAEFLVITWYGGVEFDYWGQGTQVTVSS"
experimental_value = "low polyreactivity"

[[record]]
seq_string = "QVQLVESGGGLVQAGGSLRLSCAASGRTFIRNAMGWYRQAPGKERELVAAISRSGGRTYYADSVKGRFTISRDNAKNTVYLQMNSLKPEDTAVYYCAAGSYQRYAFDYWGQGTQVTVSS"
experimental_value = "high polyreactivity"

[[record]]
seq_string = "QVQLVESCGGLVQAGGSLRLSCAASGRISQNAMGWYRQPPVKERELVAAITFSGGSTYYADSVKGRFTISRDNAKNTVYLQMNSLKPEDTAVYYCNGDYGDWPTAGDYWGQGTQVTVSS"
experimental_value = "low polyreactivity"


Please examine the following record next.
q: Can you look up the measured polyreactivity (PSR sort gate) of `QVQLVESVGSLVQAGVSLRLSCAASGFILYANAMGWYRQAPGKERELGAAISRGTSTYYADSVKGRFTISRDNAKNTVYLQMTSLKPEDTAVYYCATSSYRPWGGYYWGQGTQVTVSS` for me?
a: high polyreactivity

###

Experiment Summary: yeast display, Sf9 membrane polyspecificity reagent, FACS + sequencing; frameworks hold sequencing errors
Property Name: polyreactivity (PSR sort gate)

// worked examples, polyreactivity (PSR sort gate) included
[[record]]
seq_string = "QVQLVESGGGLVQAGGSLRLSCAASGSIFVPYAMGWYRQAPGKERELVAVIRYRGGTTYYADSVKGRFTLSRDNAKNTVYLQMNSLKPEDTAVYYCEASARRYPPAAGVPYRYDYWGQGTQVTVSS"
experimental_value = "high polyreactivity"

[[record]]
seq_string = "QVQLVESGGGLVQAGGSLRLSCAASGSIFKYAMGWSRQAPGKERELVAAINQRGGRTYYADSVKGRFTISRDNAKNTVYLQMNSLKPEDTAVYYCNAYYLRTSSTEYDYWGQGTQVTVSS"
experimental_value = "high polyreactivity"

[[record]]
seq_string = "QVQLVESGGGLVQAGGSLRLSCAASGSIFVGNAMGWDRQAPGKERELVATLSWSGGSTYYADSVKGRFTISRDNAKNTVDLQMNSLNPEDTAVYYCAKTPYRRYRYGGYTYRTYDYWGQGTQVTVSS"
experimental_value = "low polyreactivity"

[[record]]
seq_string = "QVQLVESGGGLVQAGGSLRLSCAASGSIFTAYAMGWYRQAPGKERELVAAIDDSGDSTYYADSVKGRFTISRDNAKNTVYLQMNSLKPEDTAVYYCKAEYRVNKEYDYWGQGTQVTVSS"
experimental_value = "low polyreactivity"


Query sequence follows.
q: Please look up its polyreactivity (PSR sort gate): `QVQLVESGGGLVQAGGSLLLSCAASGSTFYYNAMGWYRQATGKERELVARISRSGGSTYADSVKGRFTISRDNAKNTVYLQMNSLKPEDTAVYYCNADAYGTPEFTSYAVRYDYWGQGTQVTVSS`
a: low polyreactivity

Every entry's value here was drawn from the nanobody polyreactivity screen of Harvey et al. (2022).
